# tested-system: human GPVI extracellular region-human Fc fusion protein (hGPVI-hFc) (human)
# Sequence (chain, as listed by the source limits assumed): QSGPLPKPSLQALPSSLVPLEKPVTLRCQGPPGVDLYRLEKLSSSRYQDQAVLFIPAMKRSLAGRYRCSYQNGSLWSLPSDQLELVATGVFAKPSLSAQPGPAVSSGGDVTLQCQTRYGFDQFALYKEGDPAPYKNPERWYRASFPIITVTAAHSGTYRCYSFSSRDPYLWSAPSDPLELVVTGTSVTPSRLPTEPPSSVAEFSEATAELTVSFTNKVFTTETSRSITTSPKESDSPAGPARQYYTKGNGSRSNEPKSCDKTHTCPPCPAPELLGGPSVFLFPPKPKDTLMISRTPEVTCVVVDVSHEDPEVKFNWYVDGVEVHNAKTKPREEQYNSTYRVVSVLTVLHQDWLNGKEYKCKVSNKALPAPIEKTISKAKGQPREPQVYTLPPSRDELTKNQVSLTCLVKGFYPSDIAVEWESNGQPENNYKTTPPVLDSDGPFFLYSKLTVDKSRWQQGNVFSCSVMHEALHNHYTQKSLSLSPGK
# assay-name: ELISA on immobilised hGPVI-hFc; ++ absorbance 1.0 to 2.0
assay-metric: absorbance

Qu. For F1249-5-1 (antibody, V domains shown) VH: QVQLQQPGAELVKPGASVKLSCKASGYTFTSYWMHWLKQRPGQGLEWIGMIHPNSDITNYNEKFKNKATLTVAKSSSTAYMQLSSLTSEDSAVYYCARLGDYYAMDYWGQGTSVTVSS VL: SIVMTQTPKFLLVSAGDRVTITCKASQSVSNDVTWYQQKPGQSPKLLIYYASNRYTGVPDRFTGSGYGTDFTFTISTVQAEDLAVYFCQQDYSSPPTFGGGTKLEIKR , what is its reported absorbance?
Ans. 1 to 2 od
